- EXPERIMENTAL TARGET: Dopamine beta-hydroxylase (Homo sapiens)
- Sequence (P09172 whole entry): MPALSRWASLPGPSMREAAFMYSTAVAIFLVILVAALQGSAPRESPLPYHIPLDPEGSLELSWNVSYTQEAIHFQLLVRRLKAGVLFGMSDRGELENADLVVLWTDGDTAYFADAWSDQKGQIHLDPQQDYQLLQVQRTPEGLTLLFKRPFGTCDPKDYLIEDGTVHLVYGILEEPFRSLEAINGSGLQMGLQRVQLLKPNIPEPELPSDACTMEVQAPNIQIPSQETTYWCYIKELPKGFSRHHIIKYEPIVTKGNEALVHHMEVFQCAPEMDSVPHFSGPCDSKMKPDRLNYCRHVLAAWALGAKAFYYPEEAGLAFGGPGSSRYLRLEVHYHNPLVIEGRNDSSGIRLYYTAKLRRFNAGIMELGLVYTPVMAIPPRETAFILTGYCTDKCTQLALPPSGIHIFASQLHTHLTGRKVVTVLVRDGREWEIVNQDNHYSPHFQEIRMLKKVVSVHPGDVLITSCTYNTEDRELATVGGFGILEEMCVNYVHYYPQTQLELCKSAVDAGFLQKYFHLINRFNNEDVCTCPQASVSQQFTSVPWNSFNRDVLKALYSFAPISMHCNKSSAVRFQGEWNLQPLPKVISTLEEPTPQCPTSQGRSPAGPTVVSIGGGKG
Each record is given yes (1) if its reported IC50 is strictly below 100 µM. Records at or above 100 µM are given no (0).

Use the examples below as a reference point.
STRUCTURE: COc1ccc(Cn2cc[nH]c2=S)cc1C
CLASS LABEL: yes (1)

STRUCTURE: S=c1[nH]ccn1Cc1ccc(Cl)cc1
CLASS LABEL: yes (1)

STRUCTURE: COc1cccc(OC)c1Cn1cc[nH]c1=S
CLASS LABEL: no (0)

STRUCTURE: COc1c(F)cc(Cn2cc[nH]c2=S)cc1F
CLASS LABEL: yes (1)

Here's an entry: Oc1ccc(Cn2cc[nH]c2=S)cc1C(F)(F)F . Is its IC50 below 100 µM?
no (0)

Now this one: COc1cccc(Cn2cc[nH]c2=S)c1
no (0)

And the next one, S=c1[nH]ccn1Cc1ccccc1Cl ?
no (0)
